# experiment: ATP-based viability of Huh7 replicon cells – cell-based, CellTiter-Glo luminescence, basal, 48 h, cytotoxicity control for HCV replication inhibitor project, primary screen (AID 1143);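 note: Huh7 hepatoma cells carrying a hepatitis C replication reporter with no stimulus; test concentration not given here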
# protocol conditions: higher = more signal, called active from +8 up or from −8 down
Lab note: compare z-score against -3. Equal or greater, write Condition met. Smaller, write Condition not met.

compound	category label
COC(=O)[C@@]1(Cc2ccccc2)[C@H]2c3cc(C(=O)N4CCCC4)n(CCO)c3C[C@H]2CN1C(=O)c1ccccc1	Condition met
COCCOC(=O)N1C(=O)[C@@]2(c3cc(C#CC4(O)CCCCCC4)ccc31)[C@H](C(=O)N1CCN(c3ncccn3)CC1)[C@H]1C(=O)O[C@H](c3ccccc3)[C@H](c3ccccc3)N1[C@@H]2c1ccc(O)cc1	Condition met
[N-]=[N+]=NCc1ccccc1C[C@]1(C(=O)NCCN2CCOCC2)N=C(c2ccc(OCCCO)cc2)O[C@H]1c1ccccc1	Condition not met
C=CCC(OC(C)=O)[C@@H]1[C@@H](N(Cc2ccc(-c3ccccc3)cc2)C(=O)Cc2ccc(OC)cc2)c2cc(OCCCO)ccc2N1C(=O)c1ccc(-c2ccccc2)cc1 (stereo partly specified)	Condition met
CC(C)(C)OC(=O)CC[C@@]1(C(=O)N2CCCCC2)N=C(c2ccc(OCCCO)cc2)O[C@@H]1c1ccccc1N=[N+]=[N-]	Condition met
COc1cc2c(cc1OC)CN(C(=O)[C@@H]1[C@H]3C(=O)O[C@H](c4ccccc4)[C@H](c4ccccc4)N3[C@H](c3ccc(O)cc3)[C@@]13C(=O)Nc1ccc(C#CCNC(N)=O)cc13)CC2	Condition met

----------
# experiment: inhibition of PAO1 biofilm formation – strain PAO1, LB-PBS medium, absorbance 600 nm, primary screen (AID 1176); note: test concentration not given here
# protocol conditions: P. aeruginosa PAO1 growth/biofilm, A600, 12 h; higher = more signal
molecules and their reported z-score
quantity kind: z-score

> print(dat)
                                   molecule  measured
1  CCOC(=O)C1=CCC(c2cccc(Cl)c2)O1 (stereo not drawn)     0.601
2  [N-]=[N+]=NCc1ccccc1[C@H]1OC(c2ccc(OCCCO)cc2)=N[C@@]1(Cc1ccccc1N=[N+]=[N-])C(=O)NCCN1CCOCC1     0.591
3  O=C1N(CCS(=O)(=O)c2ccccc2)c2ccccc2[C@H]2OC(c3ccc(OCCCO)cc3)=N[C@@]12CCS(=O)(=O)c1ccccc1     0.591
